Recorded values, source paper PMC9619409.

ASSAY METHOD TEXT: Microsomal stability assay, mouse
Format: in vitro ADME
MEASUREMENT SETUP: mouse liver microsomes
REPORTED PROPERTY: microsomal CLint at 1 h, 100 µM (µL/min/mg)
Could you give me the number in µL/min/mg? Just the number is fine.

Exercise: What does the data say about its microsomal CLint at 1 h, 100 µM? Entry: CC(C)C[C@H](NC(=O)CNC(=O)[C@H](C)NC(=O)c1ccc(S[C@@H]2O[C@H](CO)[C@H](O)[C@H](O)[C@H]2O)cc1)C(=O)N[C@@H](C)C(=O)N[C@H]1CCN(c2cc3c(cc2F)c(=O)c(C(=O)O)cn3C2CC2)C1 [Compound 36]
Solution: 14
